# Tested on: biotinyl-Phe-oxazolone
# Measurement Notes: self-aminoacylation, catalytic enhancement (BFO) (fold over background); higher = more active; k-Seq, kA / k0A0; sequences stand for … in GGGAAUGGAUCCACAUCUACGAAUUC…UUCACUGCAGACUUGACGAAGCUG
Fewer inactive variants are shown than the library holds.
Exercise: for every item that follows, state its recorded self-aminoacylation.
Reply with the value as a number alone.

## Input Value wanted: self-aminoacylation (biotinyl-Phe-oxazolone) of entry CCACACGUCAAGCAAUCGGCC [Fam1B.1 aminoacylation ribozyme variant]
## Output 3.91

## Input Give self-aminoacylation (biotinyl-Phe-oxazolone) of the following sequence: UUUACCCUAGUCAUCGAGUGA [Fam2.1 aminoacylation ribozyme variant]
## Output 17.3

## Input Item AUGACUCUGGUCAUCGAGUGA [Fam2.1 aminoacylation ribozyme variant] with biotinyl-Phe-oxazolone - self-aminoacylation?
## Output 23.2

## Input Param readout = self-aminoacylation; param system = biotinyl-Phe-oxazolone; param query = UUUACCCUGGUCAUCGAGUCA [Fam2.1 aminoacylation ribozyme variant] ; response: value
## Output 1.06

## Input # returns recorded self-aminoacylation (system: biotinyl-Phe-oxazolone) for AUUCACCUAGGUCAUCGGUGG [Fam2.2 aminoacylation ribozyme variant]
## Output 4.26

## Input // fetch biotinyl-Phe-oxazolone self-aminoacylation for AUUGAACUAGGUCAUCGGGUG [Fam2.2 aminoacylation ribozyme variant]
## Output 30

## Input # get_value(readout= self-aminoacylation, system= biotinyl-Phe-oxazolone) for CAGUUUGCUAAUAGUCGCACG [Fam3.1 aminoacylation ribozyme variant]
## Output 1.25

## Input Param readout = self-aminoacylation; param system = biotinyl-Phe-oxazolone; param query = AUUCACCUAGGUAAUCGCGUG [Fam2.2 aminoacylation ribozyme variant] ; response: value
## Output 16.1

## Input State its self-aminoacylation on biotinyl-Phe-oxazolone: AUUAGCCUGGUGAUCGAGUGA [Fam2.1 aminoacylation ribozyme variant]
## Output 41.1

## Input Any idea what self-aminoacylation came out for AUUCUCCUAGGUGAUCGGGUG [Fam2.2 aminoacylation ribozyme variant] on biotinyl-Phe-oxazolone?
## Output 26.4

## Input Which self-aminoacylation is reported with biotinyl-Phe-oxazolone for this entry: AAGAUUGCUAAUAGUCCCAAG [Fam3.1 aminoacylation ribozyme variant] ?
## Output 2.39

## Input // lookup self-aminoacylation | system=biotinyl-Phe-oxazolone | key= AUUACCCUUAUCAUCGAGUGA [Fam2.1 aminoacylation ribozyme variant]
## Output 60.8

## Input Lab note: need self-aminoacylation with biotinyl-Phe-oxazolone for entry AAGUCUGCUAAUAGUAGCAAG [Fam3.1 aminoacylation ribozyme variant] , please look it up.
## Output 1.42

## Input Request - read-out self-aminoacylation | tested on biotinyl-Phe-oxazolone | sequence AUUCAUCUCGGUCAUCGGGUG [Fam2.2 aminoacylation ribozyme variant]
## Output 49.8

## Input Lab request: please report self-aminoacylation under test system biotinyl-Phe-oxazolone for AUUCACCCAGGUCAUCGGGCG [Fam2.2 aminoacylation ribozyme variant]
## Output 18

## Input Write down the reported self-aminoacylation of CUACUUCAGACCAUCGGUCUG [Fam1A.1 aminoacylation ribozyme variant] , test system: biotinyl-Phe-oxazolone.
## Output 1.06

## Input Enter reported self-aminoacylation observed with biotinyl-Phe-oxazolone for AAGUUUCCUAAUAGUCGCAAG [Fam3.1 aminoacylation ribozyme variant]
## Output 2.47

## Input Param readout= self-aminoacylation; system= biotinyl-Phe-oxazolone; entry= CUACUUCAAAGAAUCGAUCUG [Fam1A.1 aminoacylation ribozyme variant] ; returns value.
## Output 0.544

## Input Record lookup: for biotinyl-Phe-oxazolone, what self-aminoacylation belongs to CCAAACUUCAAGCAAUUGGUC [Fam1B.1 aminoacylation ribozyme variant] ?
## Output 1.1

## Input What self-aminoacylation appears in the records for this sequence with biotinyl-Phe-oxazolone? CCAAACUUUAAGCAAUCGGUC [Fam1B.1 aminoacylation ribozyme variant]
## Output 0.824

###

# System: biotinyl-Leu-oxazolone
# Measurement Notes: self-aminoacylation, catalytic enhancement (BLO) (fold over background); higher = more active; k-Seq, kA / k0A0; sequences stand for … in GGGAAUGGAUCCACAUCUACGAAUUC…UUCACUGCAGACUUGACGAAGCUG
Variants at the floor of the assay were thinned out.
Give True when the value for self-aminoacylation is at least 1. Give False when it is less.

## Input Form field: self-aminoacylation at least 1? Entry: AUUACCCUGGUAACCGAGUGA [Fam2.1 aminoacylation ribozyme variant]
## Output True

## Input I'd appreciate it if you could say whether AUUCACCUAGGUCAUAGGGUG [Fam2.2 aminoacylation ribozyme variant] has self-aminoacylation at least equal to 1.
## Output True

## Input Please check the record AUCCACCUAGGUCCUCGGGUG [Fam2.2 aminoacylation ribozyme variant] and state if its self-aminoacylation is at or above 1.
## Output True

## Input Say whether AACUUUGCUAAUAGUCGCAAG [Fam3.1 aminoacylation ribozyme variant] shows self-aminoacylation of 1 or more.
## Output True

## Input Reported self-aminoacylation at or above 1? CUACUUCAAGCAAUCGGUGUG [Fam1A.1 aminoacylation ribozyme variant]
## Output True

## Input Please tell me: is the sequence AAGUUUGCUGAUAGUCGCAAU [Fam3.1 aminoacylation ribozyme variant] at or over 1 in terms of self-aminoacylation?
## Output True

## Input Quick check, self-aminoacylation >= 1? AUUCCCCUGAUCAUCGAGUGA [Fam2.1 aminoacylation ribozyme variant]
## Output True

## Input Is reported self-aminoacylation greater than or equal to 1 here: AUUACCCGGGUCAUCGAGUCA [Fam2.1 aminoacylation ribozyme variant]
## Output True

## Input Answer whether self-aminoacylation of CUACUGCAAACAAUCGGUCUC [Fam1A.1 aminoacylation ribozyme variant] is greater than or equal to 1.
## Output False

## Input // inclusive: self-aminoacylation at least 1? input: CCUCACUUCAAGCAAUCGGUC [Fam1B.1 aminoacylation ribozyme variant]
## Output True

## Input Is self-aminoacylation at least 1? Consider CCACACUUCAUGGAAUCGGUC [Fam1B.1 aminoacylation ribozyme variant]
## Output False

## Input Tell me whether self-aminoacylation is at least 1 here: CUACUUCAGACCAUCGGUCUG [Fam1A.1 aminoacylation ribozyme variant]
## Output True

## Input Test whether the sequence CUACUUCAAACACUCGGUCUC [Fam1A.1 aminoacylation ribozyme variant] records self-aminoacylation of 1 or higher.
## Output False

## Input Hi, just wondering whether AAGUUUGCUAAUAGUCACAAC [Fam3.1 aminoacylation ribozyme variant] shows self-aminoacylation of 1 or higher.
## Output False

## Input Answer whether self-aminoacylation of AUUCACCUAGGUCAGCGGGCG [Fam2.2 aminoacylation ribozyme variant] is greater than or equal to 1.
## Output True

## Input Quick check: does CUACCUAAAACAAUCGGUCUG [Fam1A.1 aminoacylation ribozyme variant] have self-aminoacylation greater than or equal to 1?
## Output False

## Input Reported self-aminoacylation reaches at least 1 for GUUCACCUAGGUCCUCGGGUG [Fam2.2 aminoacylation ribozyme variant] ?
## Output True

## Input Is reported self-aminoacylation greater than or equal to 1 here: CCACACUUCAAGCUAACGGUC [Fam1B.1 aminoacylation ribozyme variant]
## Output False

## Input Could you please find out whether AAUACCCUGGUCAACGAGUGA [Fam2.1 aminoacylation ribozyme variant] has self-aminoacylation that meets 1 or exceeds it?
## Output True

## Input Form field: self-aminoacylation at least 1? Entry: CUACUUCAAAGAAUCGAUCUG [Fam1A.1 aminoacylation ribozyme variant]
## Output False

## Input self-aminoacylation >= 1 for GCACACUUCAAGCACUCGGUC [Fam1B.1 aminoacylation ribozyme variant] ?
## Output True

###

What self-aminoacylation was measured for each of the following?
# Test system: biotinyl-Trp-oxazolone
# Measurement Notes: self-aminoacylation, catalytic enhancement (BWO) (fold over background); higher = more active; k-Seq, kA / k0A0; sequences stand for … in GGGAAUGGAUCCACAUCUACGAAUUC…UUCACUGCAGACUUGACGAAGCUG
This sample holds only a part of the variants without activity.
Output spec: single numeric token, no unit.

## Input So what's the measured self-aminoacylation for this one? AUUCAUCGAGGUCAUCGGGUG [Fam2.2 aminoacylation ribozyme variant]
## Output 10.1

## Input Please report the recorded self-aminoacylation for CUACUUCAAACUAUCGGUAUG [Fam1A.1 aminoacylation ribozyme variant] .
## Output 0.665

## Input I am curious: what self-aminoacylation value has been reported for GAGUUUGCUAAUAGUCGAAAG [Fam3.1 aminoacylation ribozyme variant] ?
## Output 5.05

## Input Return reported self-aminoacylation; argument: AUUAACCUGGGCAUCGAGUGA [Fam2.1 aminoacylation ribozyme variant]
## Output 5.8

## Input Look up self-aminoacylation: AUUUACCUAGGUCAUCGUGUG [Fam2.2 aminoacylation ribozyme variant]
## Output 0.691

## Input GET /values?readout=self-aminoacylation&item= CCACACUUCAAGCAAUCCUUC [Fam1B.1 aminoacylation ribozyme variant]
## Output 0.533

## Input Dear colleague, I am looking for the recorded self-aminoacylation of the following sequence: GUUCACCCAGGUCAUCGGGUG [Fam2.2 aminoacylation ribozyme variant]
## Output 3.77

## Input Need self-aminoacylation, item AUGUUUGCUAAUAGUCGCGAG [Fam3.1 aminoacylation ribozyme variant]
## Output 2.18

## Input Given the sequence AUACUUCAAACAAUCGGUGUG [Fam1A.1 aminoacylation ribozyme variant] , what is its reported self-aminoacylation?
## Output 2.68

## Input Reported self-aminoacylation, sequence CAGUUUGCUAAUAGUCGCACG [Fam3.1 aminoacylation ribozyme variant] : ____
## Output 1.46

## Input Look up self-aminoacylation: AGUCAGCUAGGUCAUCGGGUG [Fam2.2 aminoacylation ribozyme variant]
## Output 9.92

## Input Please report the recorded self-aminoacylation for GUUCACCUAGCUCAUCGGGUG [Fam2.2 aminoacylation ribozyme variant] .
## Output 2.86

## Input Quick check: self-aminoacylation of AAGUUAGCUAAUAGUCGCAAG [Fam3.1 aminoacylation ribozyme variant] ?
## Output 2.21

## Input Recorded self-aminoacylation of AUUAGCCUGGUCGUCGAGUGA [Fam2.1 aminoacylation ribozyme variant] , please.
## Output 2.09

## Input Fill in: self-aminoacylation of CAGUUUGCUAAUAGUUGCAAG [Fam3.1 aminoacylation ribozyme variant] is ___
## Output 1.18

## Input What value of measured self-aminoacylation is listed for AUUACCCUGGUCAUCGAGUGA [Fam2.1 aminoacylation ribozyme variant] ?
## Output 99.1

## Input Need self-aminoacylation of UUUACCCGGGUCAUCGAGUGA [Fam2.1 aminoacylation ribozyme variant] , thanks.
## Output 9.17

## Input Fill in: self-aminoacylation of CAACUUCAAACAAUCGGUUUG [Fam1A.1 aminoacylation ribozyme variant] is ___
## Output 44

## Input Which self-aminoacylation is reported for this sequence? AAUCACCUAUGUCAUCGGGUG [Fam2.2 aminoacylation ribozyme variant]
## Output 6.14

## Input Could you tell me which self-aminoacylation is on file for AUUAGCCUGGUCCUCGAGUGA [Fam2.1 aminoacylation ribozyme variant] ?
## Output 5.08

## Input Entry GUACUUCAAACACUCGGUCUG [Fam1A.1 aminoacylation ribozyme variant] : reported self-aminoacylation = ?
## Output 1.91
